Molecular target: IRAK4 (Homo sapiens, UniProt Q9NWZ3)
Construct: endogenous in cells; host or cells: THP-1 cells
Sequence (Q9NWZ3 whole entry): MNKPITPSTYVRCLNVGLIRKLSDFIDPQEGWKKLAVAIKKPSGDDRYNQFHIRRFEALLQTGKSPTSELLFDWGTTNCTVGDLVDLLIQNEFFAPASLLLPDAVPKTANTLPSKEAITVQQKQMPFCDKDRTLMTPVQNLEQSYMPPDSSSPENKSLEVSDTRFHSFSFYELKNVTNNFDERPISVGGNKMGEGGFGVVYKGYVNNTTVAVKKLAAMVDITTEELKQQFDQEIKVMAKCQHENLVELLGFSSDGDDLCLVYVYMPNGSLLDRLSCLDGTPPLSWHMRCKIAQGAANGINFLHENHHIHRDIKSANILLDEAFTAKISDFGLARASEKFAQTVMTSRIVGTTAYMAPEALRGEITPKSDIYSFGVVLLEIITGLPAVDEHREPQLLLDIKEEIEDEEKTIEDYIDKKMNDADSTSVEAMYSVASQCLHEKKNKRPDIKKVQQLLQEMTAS
Assay: LVL THP1 HTRF (THP1 Homogeneous Time Resolved Fluorescence)
Type: cell-based
Details: THP1 cells, 18 h incubation with compound

compound | LVL THP1 HTRF YMIN, %
C[C@H](C#N)Nc1cc(-n2ncc3cc(C#N)cnc32)ncc1-n1cc([C@H]2CC[C@H](CCN3CC[C@H]4[C@@H]3CCN4c3ccc(C4CCC(=O)NC4=O)cc3)CC2)nn1 (single isomer, unassigned) [P-327] | 2.2
C[C@H](C#N)Nc1cc(-n2ncc3cc(C#N)cnc32)ncc1C(=O)N[C@H]1CC[C@@H](CCN2CC[C@H]3[C@@H]2CCN3c2ccc(N3CCC(=O)NC3=O)c(Cl)c2)CC1 (single isomer, unassigned) [P-488] | 41.7
C[C@H](C#N)Nc1cc(-n2ncc3cc(C#N)cnc32)ncc1-n1cc([C@H]2CC[C@H](CCN3CCN(c4ccc(N5CCC(=O)NC5=O)cc4F)CC3)CC2)nn1 [P-367] | 7.9
C[C@H](C#N)Nc1cc(-n2ncc3cc(C#N)c(N)nc32)ncc1C(=O)N[C@H]1CC[C@H](CCN2CCN(c3ccc(C4CCC(=O)NC4=O)cc3)C(=O)C2)CC1 (stereo partly shown) [P-177] | 6.4
C[C@H](C#N)Nc1cc(Nc2ncc(C#N)cn2)ncc1-n1cc([C@H]2CC[C@H](CCN3CCN(c4ccc(C5CCC(=O)NC5=O)cc4)CC3)CC2)nn1 (stereo partly shown) [P-388] | 3.5
C[C@H](C#N)Nc1cc(-n2ncc3cc(C#N)cnc32)ncc1-n1cc([C@H]2CC[C@H](CCN3CCC(c4ccc([C@@]5(F)CCC(=O)NC5=O)cc4)CC3)CC2)nn1 (single isomer, unassigned) [P-338] | 61.2
C[C@H](C#N)Nc1cc(-n2ncc3cc(C#N)cnc32)ncc1-n1cc([C@H]2CC[C@H](CCN3CCC(c4cccc5c(N6CCC(=O)NC6=O)nn(C)c45)CC3)CC2)nn1 [P-335] | 5.1
C[C@H](C#N)Nc1cc(-n2ncc3cc(C#N)cnc32)ncc1-n1cc([C@H]2CC[C@](O)(CCN3CCN(c4ccc([C@@]5(C)CCC(=O)NC5=O)nc4)CC3)CC2)nn1 (single isomer, unassigned) [P-419] | −0.8
CCNc1cc(-n2ncc3cc(C#N)cnc32)ncc1-n1cc([C@H]2CC[C@H](CCN3CCN(c4ccc(C5CCC(=O)NC5=O)cc4)CC3)CC2)nn1 (stereo partly shown) [P-395] | 2.6
C[C@H](C#N)Nc1cc(-n2ncc3cc(C#N)cnc32)ncc1-n1cc([C@H]2CC[C@H](CCN3C[C@@H](C)N(c4ccc(N5CCC(=O)NC5=O)cc4)C[C@H]3C)CC2)nn1 [P-496] | 2.7

Reference source: patent US20240109881A1
